system: Trypanosoma cruzi; assay: Trypanocidal activity against bloodstream trypomastigote stage of Trypanosoma cruzi Y after 24 hrs by Neubauer chamber method; assay type: functional
pIC50: −log10 of the molar value.
experimental-readout: pIC50

Study these solved cases before continuing.
O=C1C(=O)c2ccccc2C2=C1CC(Cn1cc(-c3ccccc3)nn1)O2 (stereo not drawn)    < 3.00
O=C1C(=O)c2ccccc2C2=C1CC(Cn1nncc1-c1ccccc1)O2 (stereo not drawn)    < 3.00
CC1(C)CC(n2nnc(-c3ccccc3)c2I)C2=C(O1)C(=O)c1ccccc1C2=O (stereo not drawn)    < 3.00
CC1(C)CCC2=C(O1)c1ccccc1C(=O)C2=O    3.41
CC1(C)OC2=C(C(=O)C(=O)c3ccccc32)C1n1nncc1-c1ccccc1 (stereo not drawn)    3.95
O=C1C2=C(OC(Cn3nncc3-c3ccccc3)C2)C(=O)c2ccccc21 (stereo not drawn)    < 3.00
CC1(C)OC2=C(C(=O)c3ccccc3C2=O)C1n1nnc(-c2ccccc2)c1I (stereo not drawn)    < 3.00

Now for the compound whose pIC50 we want.
Fill blank: measured pIC50 of the compound O=C1C2=C(OC(Cn3cc(-c4ccccc4)nn3)C2)C(=O)c2ccccc21 (stereo not drawn) is ____.
< 3.00
